- Assay target: Prostaglandin G/H synthase 2 (Homo sapiens, UniProt P35354)
- Sequence (P35354 whole entry): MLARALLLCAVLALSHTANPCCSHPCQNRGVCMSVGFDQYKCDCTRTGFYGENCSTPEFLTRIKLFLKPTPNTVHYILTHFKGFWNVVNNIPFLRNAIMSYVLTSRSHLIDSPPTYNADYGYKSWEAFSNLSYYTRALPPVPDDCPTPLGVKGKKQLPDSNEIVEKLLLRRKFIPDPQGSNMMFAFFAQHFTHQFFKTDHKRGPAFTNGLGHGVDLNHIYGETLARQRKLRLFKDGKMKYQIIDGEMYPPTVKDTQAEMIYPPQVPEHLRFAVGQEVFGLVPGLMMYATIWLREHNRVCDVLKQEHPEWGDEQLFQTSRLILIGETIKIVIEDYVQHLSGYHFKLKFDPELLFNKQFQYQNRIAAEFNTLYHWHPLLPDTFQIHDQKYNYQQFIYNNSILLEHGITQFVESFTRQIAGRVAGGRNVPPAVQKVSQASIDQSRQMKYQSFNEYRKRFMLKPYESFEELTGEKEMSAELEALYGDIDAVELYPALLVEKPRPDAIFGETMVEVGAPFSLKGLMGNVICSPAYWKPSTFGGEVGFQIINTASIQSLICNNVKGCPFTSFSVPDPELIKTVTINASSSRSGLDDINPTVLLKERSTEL
- Condition set: read-out: IC50
Parameter: pIC50
On this scale, pIC50 is minus log10 of a concentration expressed in M (mol/L).

// lookup pIC50 | system=Prostaglandin G/H synthase 2 (Homo sapiens, UniProt P35354) | key= CC(=O)NS(=O)(=O)c1ccc(-c2[nH]c3ccccc3c2-c2ccccc2)cc1
9.74

// lookup pIC50 | system=Prostaglandin G/H synthase 2 (Homo sapiens, UniProt P35354) | key= NS(=O)(=O)c1ccc(-c2[nH]c3ccccc3c2-c2ccc(F)cc2)cc1
8.29

// lookup pIC50 | system=Prostaglandin G/H synthase 2 (Homo sapiens, UniProt P35354) | key= Cc1ccc(-c2c(-c3ccc(S(N)(=O)=O)cc3)[nH]c3ccccc23)cc1
10.15

// lookup pIC50 | system=Prostaglandin G/H synthase 2 (Homo sapiens, UniProt P35354) | key= NS(=O)(=O)c1ccc(-c2[nH]c3ccc(Cl)cc3c2-c2ccccc2Cl)cc1
7.00

// lookup pIC50 | system=Prostaglandin G/H synthase 2 (Homo sapiens, UniProt P35354) | key= NS(=O)(=O)c1ccc(-c2[nH]c3ccccc3c2-c2ccc(Cl)cc2)cc1
7.47
